# System: rodent lifetime carcinogenesis bioassay, tumor incidence TD50
# measurement.notes: carcinogenic potency in animals, long-term in vivo studies, CPDB compilation (AID 1745844)
# assay.setup: mouse; strain B6C3F1; females; i.p.; site: any site (literature study); lesion: several types; types named in the paper; dosed 52 weeks; study length 81 weeks

substance.smiles	TD50, mg/kg/day
Nc1ncn([C@@H]2O[C@H](CO)[C@@H](O)[C@H]2O)c(=O)n1	0.219

###

# System: rodent lifetime carcinogenesis bioassay, tumor incidence TD50
# measurement.notes: carcinogenic potency in animals, long-term in vivo studies, CPDB compilation (AID 1745844)
# assay.setup: mouse; strain Swiss CD-1; females; in drinking water; site: liver; lesion: hepatocellular tumor; dosed 34 weeks; study length 125 weeks
Active and inactive are the calls of the source. The rule behind the calls is not given here.
test.readout: TD50

substance.smiles	observed
O=NO	744 mg/kg/day (inactive)
